# Lookup of reported koff keyed by entry
Target: T1, shFcRn (soluble human FcRn) (human, UniProt P55899 24-297; P61769 21-119)
T1 construct: extracellular domain; Printed only as 'soluble human FcRn'; also called hFcRn (immobilized on a chip)
T1 sequence (P55899 24-297 limits assumed, chain 1 of 2): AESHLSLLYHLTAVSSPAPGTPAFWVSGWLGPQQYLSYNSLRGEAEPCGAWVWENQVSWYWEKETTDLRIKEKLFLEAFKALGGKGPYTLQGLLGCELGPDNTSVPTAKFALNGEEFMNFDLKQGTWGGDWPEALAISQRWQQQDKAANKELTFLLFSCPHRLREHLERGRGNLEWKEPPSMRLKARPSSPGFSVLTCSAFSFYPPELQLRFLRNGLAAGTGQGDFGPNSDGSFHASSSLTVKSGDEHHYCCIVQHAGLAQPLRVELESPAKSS
T1 sequence (P61769 21-119 limits assumed, chain 2 of 2): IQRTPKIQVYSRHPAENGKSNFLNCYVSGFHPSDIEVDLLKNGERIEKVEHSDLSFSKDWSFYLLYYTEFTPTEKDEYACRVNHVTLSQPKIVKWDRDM
Assay: SPR, shFcRn immobilized on chip, antibody as analyte, pH 7.4;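 note: kinetics fitted with a 1:1 Langmuir model, association 200 s and dissociation 600 s in PBST, double-referenced against buffer-only and interspot signals, values averaged over repeated runs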
Write the answer as a number in s⁻¹, unit excluded.

These recorded examples may help you get a feel for the data.
Output measured koff for this item: HL161AN variant No. 15 (LC:N25Q, HC:Q82T) (antibody, human IgG1, V domains shown, Variable domains only) VL: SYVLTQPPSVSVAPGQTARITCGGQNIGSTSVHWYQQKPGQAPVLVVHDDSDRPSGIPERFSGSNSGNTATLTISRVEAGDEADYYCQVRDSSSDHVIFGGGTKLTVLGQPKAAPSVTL VH: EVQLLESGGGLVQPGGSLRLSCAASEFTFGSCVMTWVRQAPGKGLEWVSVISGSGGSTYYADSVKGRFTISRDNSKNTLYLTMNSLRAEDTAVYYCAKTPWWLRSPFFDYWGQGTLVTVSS
0.000513

Input HL161AN variant No. 21 (LC:N25Q, HC:C32Y Q82T) (antibody, human IgG1, V domains shown, Variable domains only) VL: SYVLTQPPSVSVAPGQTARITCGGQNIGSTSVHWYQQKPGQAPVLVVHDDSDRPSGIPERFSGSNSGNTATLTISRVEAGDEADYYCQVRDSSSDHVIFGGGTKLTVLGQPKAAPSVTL VH: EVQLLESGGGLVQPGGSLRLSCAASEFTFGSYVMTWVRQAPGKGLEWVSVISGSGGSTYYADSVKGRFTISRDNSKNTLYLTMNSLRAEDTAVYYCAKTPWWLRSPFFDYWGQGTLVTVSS , output reported koff.
0.000499

Please look at the following binder next.
Give koff for the following binder: HL161AN variant No. 16 (LC:N25Q, HC:Q82E) (antibody, human IgG1, V domains shown, Variable domains only) VL: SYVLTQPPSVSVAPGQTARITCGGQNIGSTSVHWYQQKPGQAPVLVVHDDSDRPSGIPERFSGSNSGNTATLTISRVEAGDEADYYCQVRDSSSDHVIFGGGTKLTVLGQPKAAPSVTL VH: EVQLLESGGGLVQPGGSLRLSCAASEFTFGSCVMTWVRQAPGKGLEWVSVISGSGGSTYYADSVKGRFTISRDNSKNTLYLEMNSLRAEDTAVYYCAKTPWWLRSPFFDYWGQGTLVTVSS
0.000504

These entries and their values trace back to patent US20230391876A1.
